Biological target: CTX-M15 (Escherichia coli, UniProt Q9EXV5)
Sequence (Q9EXV5 entry or part of it): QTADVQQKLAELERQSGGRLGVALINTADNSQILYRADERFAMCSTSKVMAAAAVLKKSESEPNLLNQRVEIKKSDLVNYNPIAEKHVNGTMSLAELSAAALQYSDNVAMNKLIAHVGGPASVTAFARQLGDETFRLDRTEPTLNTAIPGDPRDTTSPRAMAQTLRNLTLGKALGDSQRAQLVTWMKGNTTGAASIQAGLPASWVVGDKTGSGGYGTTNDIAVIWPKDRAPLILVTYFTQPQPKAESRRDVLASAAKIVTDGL
Experiment: In vitro enzyme inhibition assay (nitrocefin hydrolysis), CTX-M15
Format: biochemical
Conditions: nitrocefin 50 μM, band; read-out: CTX-M15 mean IC50 (banded)
Observed property: IC50

Query: Which IC50 is listed for NC(=O)[C@@H]1CC[C@@H]2CN1C(=O)N2OS(=O)(=O)O [Avibactam, avibactam, reference compound] ?
Result: < 5 nM

---

Molecular target: AmpC (Enterobacter cloacae, UniProt P05364)
Sequence (P05364 21-381): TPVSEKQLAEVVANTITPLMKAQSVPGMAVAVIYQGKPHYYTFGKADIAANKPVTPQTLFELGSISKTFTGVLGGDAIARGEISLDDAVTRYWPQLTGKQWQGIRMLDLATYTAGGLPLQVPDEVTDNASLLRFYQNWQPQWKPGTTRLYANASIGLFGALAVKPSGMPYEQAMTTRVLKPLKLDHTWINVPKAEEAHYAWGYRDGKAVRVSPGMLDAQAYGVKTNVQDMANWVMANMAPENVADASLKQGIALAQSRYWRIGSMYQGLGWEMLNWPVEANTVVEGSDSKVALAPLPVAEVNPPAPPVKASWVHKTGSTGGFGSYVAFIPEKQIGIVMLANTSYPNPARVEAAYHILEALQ
Settings: read-out: Amp-C mean IC50 (banded); nitrocefin 100 μM, band
Observed property: IC50

Query: Any idea what its IC50 is? The compound is NC(=O)[C@@H]1CC[C@@H]2CN1C(=O)N2OS(=O)(=O)O [Avibactam, avibactam, reference compound]
Result: < 10 nM
